# measured-target: Calmodulin-1 (Homo sapiens) (UniProt P0DP23)
# experimental-details: small molecules binding Ca-loaded calmodulin-1 – biochemical, small-molecule microarray, Cy5-labelled CALM1, plus calcium, artefact control for SMM control-protein annotation, profiling panel (AID 1112);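 note: score merges spot fluorescence with signal to noise from triplicate slides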
# run-conditions: Cy5-CALM1 binding fluorescence, higher = more signal
Kindly return rule met if reported composite z-score is no lower than -0.02; return rule not met if it is lower.

Previously resolved entries follow.
[[record]]
molecule = "CS(=O)(=O)CCOC(=O)C1=CC(CCCO)=CC(c2ccc(CN3CCCC3)cc2)N(Cc2sc3ccccc3c2Cl)C=C1C(=O)OCCS(C)(=O)=O (stereo not given)"
class_name = "rule met"

[[record]]
molecule = "COCCOC(=O)N1C(=O)[C@@]2(c3cc(C#CC4=CCCCC4)ccc31)[C@H](c1ccccc1OCCO)N1[C@H](c3ccccc3)[C@H](c3ccccc3)OC(=O)[C@H]1[C@@H]2C(=O)NC[C@H](O)c1ccccc1"
class_name = "rule met"

[[record]]
molecule = "CCC1=C2CN(Cc3ccccc3)[C@@H](C(=O)Cc3ccccc3)C2C=CCC1 (stereo not given in full)"
class_name = "rule not met"

[[record]]
molecule = "CCCC=C(CCC)[C@@H](NS(=O)(=O)c1ccc(C(F)(F)F)cc1)c1ccccc1"
class_name = "rule met"

[[record]]
molecule = "CC(C)N1C(=O)C[C@@](C(=O)O)(c2ccc([N+](=O)[O-])cc2)[C@H]1c1ccc(CO)cc1"
class_name = "rule met"

[[record]]
molecule = "CCOC(=O)C1=C[C@@H](C(C)(C)C)N(S(=O)(=O)c2ccc(C)cc2)[C@H]1c1cccc2ccccc12"
class_name = "rule met"

[[record]]
molecule = "C=CCC(OC(C)=O)[C@@H]1[C@@H](N(Cc2cc3ccccc3o2)C(=O)Cc2ccc(F)cc2)c2cc(OCCCO)ccc2N1C(=O)Cc1ccc2ccccc2c1 (stereo not given in full)"
class_name = "rule met"

[[record]]
molecule = "CC[C@@H]1C=C(C(=O)O)[C@H](c2ccc(C#N)cc2)N1S(=O)(=O)c1ccc(C)cc1"
class_name = "rule not met"

[[record]]
molecule = "COC(=O)[C@@]1(Cc2ccc(F)cc2)[C@H]2c3cc(C(=O)N4CCCC4)n(CCc4c[nH]c5ccccc45)c3C[C@H]2CN1C(=O)c1ccccc1"
class_name = "rule met"

[[record]]
molecule = "O=C1O[C@@H](c2ccccc2)[C@@H](c2ccccc2)N2[C@@H](c3ccc(OCCO)cc3)[C@]3(C(=O)Nc4ccc(C#CC5=CCCCC5)cc43)[C@@H](C(=O)NC[C@H](O)c3ccccc3)[C@H]12"
class_name = "rule met"


*Q* Does the molecule "C=C(COC)C(=O)CC[C@@H](OC(C)=O)c1cccc(OCCO)c1" have recorded composite z-score that is -0.02 or more?
*A* rule not met

*Q* Reported composite z-score reaches at least -0.02 for "C=C[C@@H](CO)N(Cc1ccc(OC)cc1)S(=O)(=O)c1ccc(Br)cc1" ?
*A* rule not met

*Q* Does the reported composite z-score for "[N-]=[N+]=NCc1ccccc1[C@@H]1OC(c2ccc(OCCCO)cc2)=N[C@]1(CCS(=O)(=O)c1ccccc1)C(=O)O" fall at or above the -0.02 mark?
*A* rule met

*Q* Given CCCCC(CC)C(O)C1C=CC2C(=O)N(c3ccccc3)C(=O)C2N1Nc1ccccc1F (stereo not given) , state whether its composite z-score is at least -0.02.
*A* rule not met

*Q* # bool: composite z-score of "COCCOC(=O)N1C(=O)[C@@]2(c3cc(C#CCCO)ccc31)[C@H](C(=O)Nc1nc3ccccc3s1)[C@H]1C(=O)O[C@H](c3ccccc3)[C@H](c3ccccc3)N1[C@@H]2c1ccc(O)cc1" >= -0.02
*A* rule not met
